The following compounds are shown together with reported inhibition at 10 µM values.
tested on: SK-OV-3 (ovarian cancer); test: NCI-60 SRB cytotoxicity screen; assay type: cell-based; details: Homo sapiens; SK-OV-3, single dose 10 μM; read-out: growth inhibition (GI%)

compound | outcome_measure | value
CCc1cccc2cc(C=CC(=O)c3ccc(OC)c(OC)c3)c(Cl)nc12 | inhibition at 10 µM | < 10%
CCc1cccc2cc(C=CC(=O)c3ccc(F)cc3)c(Cl)nc12 | inhibition at 10 µM | < 10%
CCc1cccc2cc(C=CC(=O)c3ccc(Br)cc3)c(Cl)nc12 | inhibition at 10 µM | < 10%
CCc1cccc2cc(-c3cc(-c4ccc(OC)c(OC)c4)[nH]c(=O)c3C#N)c(Cl)nc12 | inhibition at 10 µM | < 10%
CCc1cccc2cc(-c3cc(-c4ccc(OC)cc4)[nH]c(=S)c3C#N)c(Cl)nc12 | inhibition at 10 µM | < 10%

Query string: Give the measured inhibition at 10 µM of CCc1cccc2cc(C=CC(=O)c3ccc(OC)cc3)c(Cl)nc12 .
Result string: < 10%

Query string: Then what about the compound CCc1cccc2cc(C3C=C(c4ccc(OC)c(OC)c4)NC(=S)N3)c(Cl)nc12 (stereo not drawn) ?
Result string: < 10%

Query string: Then what about the compound CCc1cccc2cc(-c3cc(-c4ccc(OC)cc4)[nH]c(=O)c3C#N)c(Cl)nc12 ?
Result string: < 10%

Query string: Then what about the compound CCc1cccc2cc(-c3cc(-c4ccc(F)cc4)[nH]c(=O)c3C#N)c(Cl)nc12 ?
Result string: < 10%

Query string: Then what about the compound CCc1cccc2cc(-c3cc(-c4ccc(Br)cc4)[nH]c(=O)c3C#N)c(Cl)nc12 ?
Result string: 11.7%

Query string: Then what about the compound CCc1cccc2cc(-c3cc(-c4cc(OC)c(OC)c(OC)c4)[nH]c(=S)c3C#N)c(Cl)nc12 ?
Result string: < 10%

Query string: Then what about the compound CCc1cccc2cc(-c3cc(-c4cc(OC)c(OC)c(OC)c4)[nH]c(=O)c3C#N)c(Cl)nc12 ?
Result string: 61.4%

* * *

system: HL-60(TB) (leukemia); assay: NCI-60 SRB cytotoxicity screen; format: cell-based; conditions: Homo sapiens, single dose 10 μM, read-out: growth inhibition (GI%)
outcome_measure: inhibition at 10 µM (%)
Report the value in % with no unit label.

Query string: Give the measured inhibition at 10 µM of CCc1cccc2cc(C=CC(=O)c3cc(OC)c(OC)c(OC)c3)c(Cl)nc12 .
Result string: 73.5

Query string: Then what about the compound CCc1cccc2cc(-c3cc(-c4cc(OC)c(OC)c(OC)c4)[nH]c(=O)c3C#N)c(Cl)nc12 ?
Result string: 71.3

Query string: Then what about the compound CCc1cccc2cc(C=CC(=O)c3ccc(OC)c(OC)c3)c(Cl)nc12 ?
Result string: 61

Query string: Then what about the compound CCc1cccc2cc(C3C=C(c4cc(OC)c(OC)c(OC)c4)NC(=S)N3)c(Cl)nc12 (centres unmarked) ?
Result string: 41.5

Query string: Then what about the compound CCc1cccc2cc(-c3cc(-c4cc(OC)c(OC)c(OC)c4)[nH]c(=S)c3C#N)c(Cl)nc12 ?
Result string: 51.8

* * *

test system: KM12 (colon cancer); assay: NCI-60 SRB cytotoxicity screen; type: cell-based; settings: Homo sapiens; KM12, single dose 10 μM; read-out: growth inhibition (GI%)
outcome_measure: inhibition at 10 µM (%)
Report the value in % with no unit label.

compound | outcome_measure | value_units | value
CCc1cccc2cc(C3C=C(c4ccc(F)cc4)NC(=S)N3)c(Cl)nc12 (stereo not shown) [Compound 6d] | inhibition at 10 µM | % | 13.2

Pending compound:
Query string: Give the measured inhibition at 10 µM of CCc1cccc2cc(-c3cc(-c4cc(OC)c(OC)c(OC)c4)[nH]c(=S)c3C#N)c(Cl)nc12 [Compound 5c] .
Result string: 37.2

The values you see were collected from paper PMC11240139.
